# target_desc: human cloned somatostatin receptor 5 (human) (UniProt P35346)
# Sequence (P35346 whole entry): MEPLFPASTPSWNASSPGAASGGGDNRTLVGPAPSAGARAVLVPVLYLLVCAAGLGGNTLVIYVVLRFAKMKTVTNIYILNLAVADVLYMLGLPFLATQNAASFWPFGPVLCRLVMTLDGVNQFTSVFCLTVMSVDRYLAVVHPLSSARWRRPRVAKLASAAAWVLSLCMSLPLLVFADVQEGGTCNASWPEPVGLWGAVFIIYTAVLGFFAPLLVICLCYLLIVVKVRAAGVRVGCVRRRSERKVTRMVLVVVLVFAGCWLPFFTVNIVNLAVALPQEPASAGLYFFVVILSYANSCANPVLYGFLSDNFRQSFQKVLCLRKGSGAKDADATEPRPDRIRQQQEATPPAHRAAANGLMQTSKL
# assay: 125I-Tyr11-SRIF-14 displacement
*1 amine or outer side, *2 acyl side, *3 side chain or, on linkers, in order; H or OH if unused. Bridges are numbered along the chain shown (N, C = ends). [ ]: non-standard residue; d: D form. The star is where a group is joined. DOTA = O=C(O)CN1CCN(CC(=O)O)CCN(CC(=O)*)CCN(CC(=O)O)CC1; N(2-mercaptoethyl)Gly = O=C(CN(CCS[*:3])[*:1])[*:2]
endpoint: IC50 (nM)
Form entry: value (nM) — number only.

## Input Query (binder): {DOTA}-[dF]RCF[dW]KTF[N(2-mercaptoethyl)Gly]-NH2 (disulfide 3-9; also: Lu complex of DOTA) [SEQ ID NO: 6] ; field requested: IC50
## Output 86

## Input Query (binder): {DOTA}-[dF]RCF[dW]KTF[N(2-mercaptoethyl)Gly]-NH2 (disulfide 3-9; also: Ga complex of DOTA) [SEQ ID NO: 4] ; field requested: IC50
## Output 140

## Input Query (binder): {DOTA}-[dF]RCF[dW]KTF[N(2-mercaptoethyl)Gly]-NH2 (disulfide 3-9; also: Cu complex of DOTA) [SEQ ID NO: 5] ; field requested: IC50
## Output 150

## Input Query (binder): H-[dF]RCF[dW]KTF[N(2-mercaptoethyl)Gly]-NH2 (disulfide 3-9; SMILES C[C@@H](O)[C@@H]1NC(=O)[C@H](CCCCN)NC(=O)[C@@H](Cc2c[nH]c3ccccc23)NC(=O)[C@H](Cc2ccccc2)NC(=O)[C@@H](NC(=O)[C@H](CCCNC(=N)N)NC(=O)[C@H](N)Cc2ccccc2)CSSCCN(CC(N)=O)C(=O)[C@H](Cc2ccccc2)NC1=O) [SEQ ID NO: 1] ; field requested: IC50
## Output 310
